The measured values listed here are drawn from the OPERA property sets (Mansouri et al. 2018).

Returns MET if the recorded logP is greater than or equal to 1, and NOT MET otherwise.

Example results:
{"columns": ["Compound", "Category"],
 "data": [
  ["CCN(CC)Cc1ccc(C(=O)Nc2ccccc2)cc1", "MET"],
  ["Cc1csc(N=C(N)N)n1", "MET"],
  ["CCOC(=O)CC(=O)C=Cc1ccccc1C", "MET"],
  ["CC1(C)N=C(N)N=C(N)N1c1ccc(OCC(=O)N2CCOCC2)cc1", "NOT MET"],
  ["CCC(=O)OCCOc1ccc(C=NO)cc1OC", "MET"],
  ["FC(F)(F)CN(CC(F)(F)F)c1ccccc1", "MET"]
]}

Item `O=C(OCCNC(=O)C(F)(F)F)c1ccccc1` with logP of 1 or above? MET

Item `S=C=Nc1cccc(Br)c1` with logP of 1 or above? MET

Item CC(=O)OCC1CCC(NC(=O)N(CCCl)N=O)CC1 (stereo not given) with logP of 1 or above? MET

Item `CC(C)(C)[N+]([O-])=NC#N` with logP of 1 or above? MET

Item `O=C(O)Cc1n[nH]oc1=O` with logP of 1 or above? NOT MET

Item `NC(=O)NN=Cc1ccccc1` with logP of 1 or above? MET

Item `CN(Cc1ccccc1)N=Nc1ccc(C(=O)O)cc1` with logP of 1 or above? MET

Item CC1(O)OC(=O)c2ccccc21 (stereo not given) with logP of 1 or above? NOT MET

Item `COc1ccc(-c2nc3ccncc3[nH]2)c(OCCCCl)c1` with logP of 1 or above? MET

Item `CSc1ccc(C=NN=C(N)NN)cc1` with logP of 1 or above? MET

Item `O=C(O)c1ccco1` with logP of 1 or above? NOT MET

Item `O=C1c2ccccc2C(=O)C1(O)O` with logP of 1 or above? NOT MET

Item `O=C(CCl)Nc1ccc(Cl)c(Cl)c1` with logP of 1 or above? MET

Item `NN=C(c1ccccc1)c1ccccc1` with logP of 1 or above? MET

Item `CC(=O)n1ccnc1` with logP of 1 or above? NOT MET

Item `O=C(CN(C(=O)CCl)c1ccccc1)Nc1ccccc1` with logP of 1 or above? MET
